The measurements presented in this section are drawn from PubChem BioAssay (NCI).

test system: SK-OV-3 ovarian; test: NCI tumour cell line growth inhibition, 48 h; in the data active means GI50 below about 0.43 µM; inactive means the rest
Can you answer with just one of these options? YES = active, NO = inactive

Look up the recorded call for `C/C(=C\c1ccn(-c2ccccc2N)n1)[C@@H]1C[C@@H]2O[C@]2(C)CCC[C@H](C)[C@H](O)[C@@H](C)C(=O)C(C)(C)[C@@H](O)CC(=O)O1` in this test.
YES

Look up the recorded call for `O=C1CCc2c(sc3[nH]c(=S)n(-c4cc(C(F)(F)F)cc(C(F)(F)F)c4)c(=O)c23)C1` in this test.
NO

Look up the recorded call for `Cc1ccc2nc3ccccc3c(NCc3ccc(Cl)cc3)c2c1` in this test.
NO

Look up the recorded call for `O=C(NCCN1CCOCC1)OCc1nc2nc(Cl)nc(N3CCOCC3)c2[nH]1` in this test.
NO

Look up the recorded call for `CCCCNNC(=O)c1ccc(Br)cc1` in this test.
NO

Look up the recorded call for `COc1cc(CNc2nc3c(N)cc(C(F)(F)F)cc3nc2-c2ccccc2)cc(OC)c1OC` in this test.
NO

Look up the recorded call for `CCC[CH2][Sn]([CH2]CCC)([O]C(=O)c1cc(OC)c(OC)cc1OC)[O][Sn]([CH2]CCC)([CH2]CCC)[O]C(=O)c1cc(OC)c(OC)cc1OC` in this test.
NO

Look up the recorded call for `NC(=N\N=C/c1ccc(O)cc1)/C(N)=N\N=C/c1ccc(O)cc1` in this test.
NO

Look up the recorded call for `CCCCCCCCCCCC1=NC(C)(C)CN1C(C)(C)CO` in this test.
NO

---

system: SN12C renal; assay: NCI tumour cell line growth inhibition, 48 h
experimental.readout: TGI

Value wanted: TGI (SN12C renal) of entry `O[C@@H]1C=C[C@]23CCN(Cc4cc5c(cc42)OCO5)[C@@H]3C1`
> 100 µM

Value wanted: TGI (SN12C renal) of entry `NNC(=O)Nc1nc2ccc(NN)cc2[nH]1`
> 100 µM

Value wanted: TGI (SN12C renal) of entry O=C(O)CCC(=O)OCN1C(=O)C2C3C=CC(C2C1=O)C1C2C(=O)N(COC(=O)CCC(=O)O)C(=O)C2C31 (stereo not given)
> 100 µM

Value wanted: TGI (SN12C renal) of entry `O=C1COc2cc(N3CCN(c4cccc(C(F)(F)F)c4)CC3)ccc2N1`
> 100 µM

Value wanted: TGI (SN12C renal) of entry CC1=CC2C(C(O)CC3(C)C2CC(C)C32OCOC23COCO3)C2(C)C/C(=C/O)C(=O)C=C12 (stereo not given)
6.39 µM

Value wanted: TGI (SN12C renal) of entry `COC(=O)c1c2c(c(C)[n+]([O-])c1C)C(=O)C=C(NCc1ccccc1)C2=O`
1.39 µM

Value wanted: TGI (SN12C renal) of entry O=c1[nH]c(=O)n(C2CC(O)C(CO)O2)cc1Oc1ccccc1 (stereo not given)
> 100 µM

Value wanted: TGI (SN12C renal) of entry `C=C(C)[C@@H]1CCC=C2CC[C@]3(C)[C@H](CC[C@@H]4[C@@]5(C)CCCNC(C)(C)[C@@H]5CC[C@]43C)[C@H]21`
3.48 µM

Value wanted: TGI (SN12C renal) of entry `COc1c(C(C)=O)c(OCCCCOc2c(C(C)=O)c(OC)c3ccoc3c2OC)c(OC)c2occc12`
> 100 µM

Value wanted: TGI (SN12C renal) of entry CC(C)C1CO[C@]2(C)CCC(=O)N12 (stereo not given in full)
> 100 µM

---

system: HL-60(TB) leukemia; experiment: NCI tumour cell line growth inhibition, 48 h
experimental.readout: TGI (µM)
Field format: number, assumed µM, no unit text.

Name the recorded TGI for CC(C)(C)C1CCC2c3c([nH]c4ccccc34)C3C(=O)N(c4ccc(C#N)cc4)C(=O)C3C2C1 (centres undefined) .
15

Name the recorded TGI for CC1CC[C@@]2(OC1)O[C@H]1[C@H](O)[C@H]3[C@@H]4CC[C@H]5C[C@@H](OC6OC(CO)C(OC7OC(CO)C(O)C(OC8OCC(O)C(O)C8O)C7OC7OC(CO)C(O)C(O)C7OC7OC(CO)C(O)C(O)C7O)C(O)C6O)[C@H](O)C[C@]5(C)[C@H]4CC[C@]3(C)[C@H]1[C@@H]2C (some centres undefined) .
3.08

---

tested on: OVCAR-3 ovarian; assay: NCI tumour cell line growth inhibition, 48 h; in the data active means GI50 below about 0.43 µM; inactive means the rest
Can you answer with just one of these options? active, inactive

Look up the recorded call for CCCCC(SC(=S)N1CCCC1)C(=O)Nc1nc(CC(=O)OCC)cs1 (stereo unspecified) in this test.
inactive

Look up the recorded call for `CCC[CH2][Sn]([CH2]CCC)([O]C(=O)c1cc(OC)c(OC)cc1OC)[O][Sn]([CH2]CCC)([CH2]CCC)[O]C(=O)c1cc(OC)c(OC)cc1OC` in this test.
inactive

Look up the recorded call for `C/C(=C\c1ccn(-c2ccccc2N)n1)[C@@H]1C[C@@H]2O[C@]2(C)CCC[C@H](C)[C@H](O)[C@@H](C)C(=O)C(C)(C)[C@@H](O)CC(=O)O1` in this test.
active

Look up the recorded call for `CN1CCN(Cc2c[nH]c3c2C(=O)c2c(c(O)c4ccccc4c2O)C3=O)CC1` in this test.
inactive

Look up the recorded call for `COc1cc2c(cc1OC)-c1ncc3c(OC)ccc(OC)c3c1C2` in this test.
inactive

Look up the recorded call for CNC(=O)NCC1OC(n2cnc3c(NC(=O)Nc4ccccc4)ncnc32)C(O[Si](C)(C)C(C)(C)C)C1O[Si](C)(C)C(C)(C)C (stereo unspecified) in this test.
inactive

---

test system: HOP-62 NSCLC; assay: NCI tumour cell line growth inhibition, 48 h; in the data active means GI50 below about 0.43 µM; inactive means the rest
Can you answer with just one of these options? 1 (yes) for active, 0 (no) for inactive

Look up the recorded call for `COc1c(C(C)=O)c(OCCCCOc2c(C(C)=O)c(OC)c3ccoc3c2OC)c(OC)c2occc12` in this test.
0 (no)

Look up the recorded call for `COc1ccc(-c2cc(=O)n(-c3nc4ccccc4[nH]3)[nH]2)cc1OC` in this test.
0 (no)

Look up the recorded call for `O=[N+]([O-])c1cc[n+]([O-])c2ccccc12` in this test.
1 (yes)

Look up the recorded call for `C=CC(=O)N1CCC(c2ccc(C(N)=O)c(-c3ccc(Oc4ccccc4)cc3)n2)CC1` in this test.
0 (no)

Look up the recorded call for `CCCn1c2c(c3c(O)cccc31)C(=O)c1ccccc1-2` in this test.
0 (no)

---

For each record, write down the corresponding TGI.
tested on: MALME-3M melanoma; experiment: NCI tumour cell line growth inhibition, 48 h
Field format: number, assumed µM, no unit text.

Name the recorded TGI for `COc1ccc(-c2c(C)c(C(=O)O)nc(-c3ccc4c(O)c(OC)c5c(c4n3)=NC(C)(C)N=5)c2N)c(O)c1OC` .
17.7

Name the recorded TGI for `COc1ccccc1/C=C1\COc2ccc(-c3ccccc3)cc2C1=O` .
40.4

Name the recorded TGI for C=C(C(=O)O[C@H]1C/C(C)=C/CC/C(CO)=C/[C@H]2C(=O)OC(=C)[C@H]12)C(O)CO (some centres undefined) .
10.7

Name the recorded TGI for CC(C)/C=C1\CCC(CN2CCOCC2)C1=O (centres undefined) .
31

---

test system: UACC-62 melanoma; test: NCI tumour cell line growth inhibition, 48 h
experimental.readout: TGI (µM)
Field format: number, assumed µM, no unit text.

Value wanted: TGI (UACC-62 melanoma) of entry `COc1ccc2c(c1)nc(NNC(=O)c1cnccn1)c1cccn12`
2.99

Value wanted: TGI (UACC-62 melanoma) of entry `C=C1C(=O)O[C@H]2[C@H]1CC/C(COC(=O)CCCCCC(=O)OC/C1=C/CC[C@@]3(C)O[C@H]3[C@H]3OC(=O)C(=C)[C@@H]3CC1)=C\CC[C@@]1(C)O[C@@H]21`
4.92

Value wanted: TGI (UACC-62 melanoma) of entry `COc1ccc(/C=C(/c2ccccc2)[N+](=O)[O-])c(OC)c1`
2.7

Value wanted: TGI (UACC-62 melanoma) of entry `COC(=O)c1cc(-c2ccccc2)[nH]c1N/N=C/c1c(Cl)cccc1Cl`
9

Value wanted: TGI (UACC-62 melanoma) of entry `O=C(CCN1CCCC1)Nc1ccc2c(NCc3ccccc3)c3ccccc3nc2c1`
1.67

Value wanted: TGI (UACC-62 melanoma) of entry `O=C1NC(=O)c2ccccc2/C1=C/c1ccc2c(c1)OCO2`
54.3

Value wanted: TGI (UACC-62 melanoma) of entry `CCOC(=O)c1ccc(Nc2nc3ccccc3nc2-c2cccs2)cc1`
33.6

Value wanted: TGI (UACC-62 melanoma) of entry C=C(C(=O)O[C@H]1C/C(C)=C/CC/C(CO)=C/[C@H]2C(=O)OC(=C)[C@H]12)C(O)CO (stereo not given in full)
31.5

Value wanted: TGI (UACC-62 melanoma) of entry `CCOC(=O)N1C/C(=C\c2ccccc2)C(=O)/C(=C/c2ccccc2)C1`
6.51
